subject-of-test: CRBN and Helios (IKZF2) (Homo sapiens, UniProt Q96SW2+Q9UKS7)
Construct: His (N); Strep (N)
Sequence (Q96SW2 whole entry): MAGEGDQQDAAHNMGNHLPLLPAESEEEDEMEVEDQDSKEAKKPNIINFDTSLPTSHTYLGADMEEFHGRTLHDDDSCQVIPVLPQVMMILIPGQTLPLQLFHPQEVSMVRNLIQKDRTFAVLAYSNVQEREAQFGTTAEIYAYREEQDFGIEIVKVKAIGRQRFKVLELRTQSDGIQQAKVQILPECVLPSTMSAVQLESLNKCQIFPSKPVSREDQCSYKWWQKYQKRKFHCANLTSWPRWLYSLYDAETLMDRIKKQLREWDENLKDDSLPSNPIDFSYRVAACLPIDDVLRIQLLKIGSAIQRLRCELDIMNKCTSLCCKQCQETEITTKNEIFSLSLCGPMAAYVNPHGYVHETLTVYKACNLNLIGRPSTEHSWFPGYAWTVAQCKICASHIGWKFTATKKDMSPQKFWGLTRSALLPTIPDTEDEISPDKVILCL
Sequence (Q9UKS7 whole entry): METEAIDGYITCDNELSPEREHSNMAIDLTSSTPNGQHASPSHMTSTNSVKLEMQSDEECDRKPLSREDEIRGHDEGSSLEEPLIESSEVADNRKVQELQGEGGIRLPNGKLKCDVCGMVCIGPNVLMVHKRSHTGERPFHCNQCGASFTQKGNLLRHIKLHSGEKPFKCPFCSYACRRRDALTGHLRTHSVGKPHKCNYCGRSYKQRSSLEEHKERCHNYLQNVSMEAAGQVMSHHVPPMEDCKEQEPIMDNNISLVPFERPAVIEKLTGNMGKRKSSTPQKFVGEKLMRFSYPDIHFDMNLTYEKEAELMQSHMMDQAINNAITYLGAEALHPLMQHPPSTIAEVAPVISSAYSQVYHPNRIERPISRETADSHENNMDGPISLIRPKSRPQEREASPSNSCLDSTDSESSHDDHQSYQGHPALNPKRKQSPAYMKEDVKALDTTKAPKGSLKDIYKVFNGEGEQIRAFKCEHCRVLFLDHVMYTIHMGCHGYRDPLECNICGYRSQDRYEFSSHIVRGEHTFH
test-name: TR-FRET dimerization assay (CRBN-IKZF2 ternary complex formation)
Type: binding
run-parameters: compound concentration 6.6667E−06; n=1
Procedure: A focused library of imide analogs was synthesized and assessed for their ability to induce dimerization between CRBN and Helios in a time-resolved fluorescence energy transfer (TR-FRET) assay (FIG. 1A). Prior to TR-FRET measurements being conducted, the reactions were incubated for 15 min at rt. […] Data from single measurements (n=1), each calculated as an average of at least three technical replicates per well per experiment are presented in Table 1. […]
Would you mind telling me the reported TR-FRET-IKZF2 (Normalized to CC-885) of each entry?
Numbers only.

Cc1ccc(NC(=O)N[C@@H](C)c2cccc(NC3=CC(=O)N(C4CCC(=O)NC4=O)C3=O)c2)cc1Cl (some centres unmarked)	1.675
Cc1ccc(NC(=O)Nc2ccc(NC3=CC(=O)N(C4CCC(=O)NC4=O)C3=O)cc2)cc1Cl (centres unmarked)	0.318
COC(=O)CN(C)C1=CC(=O)N(C2CCC(=O)NC2=O)C1=O (centres unmarked)	0.039

Okay, here is my list. What is TR-FRET-IKZF2 (Normalized to CC-885) for each of these?
1. O=C(O)CCCNC1=CC(=O)N(C2CCC(=O)NC2=O)C1=O (centres unmarked)
2. O=C1CCC(N2C(=O)C=C(Nc3cnc4ccccc4c3)C2=O)C(=O)N1 (centres unmarked)
3. Cc1ccc(NC(=O)NC(C)c2cccc(NC3=CC(=O)N(C4CCC(=O)NC4=O)C3=O)c2)cc1Cl (centres unmarked)
4. CN(C1=CC(=O)N(C2CCC(=O)NC2=O)C1=O)c1ccccc1 (centres unmarked)
5. COC(=O)CNC1=CC(=O)N(C2CCC(=O)NC2=O)C1=O (centres unmarked)

1: 0.019; 2: 0.105; 3: 1.629; 4: 0.050; 5: 0.028

====

subject-of-test: CRBN and Helios (IKZF2) (Homo sapiens, UniProt Q96SW2+Q9UKS7)
Construct: His (N); Strep (N)
test-name: TR-FRET dimerization assay (CRBN-IKZF2 ternary complex formation)
Type: binding
run-parameters: compound concentration 6.6667E−07 (667 nM); n=1
endpoint-label: TR-FRET-IKZF2 (Normalized to CC-885)
Give bare numbers.

Solved cases (3 shown):
COC(=O)c1n[nH]c(NC2=CC(=O)N(C3CCC(=O)NC3=O)C2=O)n1 (centres unmarked)	0.014
O=C1CCC(N2C(=O)C=C(Nc3ccc(-n4ccnc4)cc3)C2=O)C(=O)N1 (centres unmarked)	0.270
O=C1CCC(N2C(=O)C=C(Nc3cccc(CNC(=O)Nc4ccc(Cl)c(Cl)c4)c3)C2=O)C(=O)N1 (centres unmarked)	1.035

Okay, here is my list. What is TR-FRET-IKZF2 (Normalized to CC-885) for each of these?
1. Cc1ccc(NC(=O)NCc2ccccc2NC2=CC(=O)N(C3CCC(=O)NC3=O)C2=O)cc1Cl (centres unmarked)
2. O=C1CCC(N2C(=O)C=C(Nc3ccc(Cl)cc3)C2=O)C(=O)N1 (centres unmarked)
3. Cc1ccc(NC(=O)OCCc2cccc(NC3=CC(=O)N(C4CCC(=O)NC4=O)C3=O)c2)cc1Cl (centres unmarked)

0.051
0.230
0.853

Okay, here is my list. What is TR-FRET-IKZF2 (Normalized to CC-885) for each of these?
1. O=C(O)CCCNC1=CC(=O)N(C2CCC(=O)NC2=O)C1=O (centres unmarked)
2. O=C1CCC(N2C(=O)C=C(Nc3ccc(-c4ccccc4)cc3)C2=O)C(=O)N1 (centres unmarked)

1. 0.012
2. 0.210
